Test system: U2OS
experiment: Cytotoxicity against human U2OS cells after 72 hrs by MTT assay
Format: functional, cell-based
measure.name: pIC50
The value called pIC50 is obtained by taking minus log10 of the concentration in mol/L.

State the recorded pIC50 for this entry: CC(C)[C@H]1[C@@H](O)[C@@H](O)C2=C3OC(=O)C4=C3[C@@](C)(CC[C@@H]4O)CC[C@@]21C (relative stereo)
4.71

Next up: COc1cccc2c1C(=O)c1c(O)c3c(c(O)c1C2=O)C[C@@](O)(C(=O)CO)C[C@@H]3O[C@H]1C[C@H](N)[C@H](O)[C@H](C)O1
5.47

New cases:
Param item = CC(C)[C@H]1[C@@H](O)C(=O)[C@@]2(O)[C@H]3OCC4=C3[C@@](C)(CC[C@@H]4O)CC[C@]12C (relative stereo) ; retrieve measured pIC50.
4.40

* * *

Tested on: HeLa
experiment: cells
reported.conditions: Homo sapiens, 72 h
Description: Cytotoxicity against human HeLa cells after 72 hrs by MTT assay
measure.name: IC50 (µM)
Form entry: value (µM) — number only.

Please look up its IC50: COc1cccc2c1C(=O)c1c(O)c3c(c(O)c1C2=O)C[C@@](O)(C(=O)CO)C[C@@H]3O[C@H]1C[C@H](N)[C@H](O)[C@H](C)O1
0.6

Now look at this entry.
Quick check: IC50 of CC(C)[C@H]1[C@@H](O)[C@@H](O)C2=C3OC(=O)C4=C3[C@@](C)(CC[C@@H]4O)CC[C@@]21C (relative stereo) ?
5

* * *

System: HepG2
experiment: Growth inhibition of human HepG2 cells at 20 uM after 72 hrs by MTT assay
Type: functional, cell-based
Active and inactive are the calls of the source. No cut-off for these calls is given here.
# valid calls are active, inactive; nothing else

Examples from the recorded data:
GET /call?item= CC(C)[C@H]1[C@@H](O)[C@@H](O)C2=C3OC(=O)C4=C3[C@@](C)(CC[C@@H]4O)CC[C@@]21C (relative stereo) returns the recorded outcome of this test.
active

Repeat with CC(C)[C@H]1[C@@H](O)[C@H](O)C2=CC3=C(CO)CCC[C@@]3(C)CC[C@@]21C (relative stereo)
inactive

Can you check CC(C)[C@H]1[C@@H](O)C(=O)[C@@]2(O)[C@H]3OCC4=C3[C@@](C)(CC[C@@H]4O)CC[C@]12C (relative stereo) next?
active

Queued: CC(=O)O[C@H]1C(=O)[C@@H]2[C@H]3OCC4=C3[C@@](C)(CC[C@@H]4O)CC[C@]2(C)[C@H]1C(C)C
inactive

In the following, a different molecule is considered.
What did the test return for CC(C)[C@H]1C(=O)CC2=C(O)C3=C(CO)[C@@H](O)CC[C@@]3(C)CC[C@@]21C (relative stereo) ?
active
